# measured-on: BRM (Homo sapiens, UniProt P51531)
# Construct: In-Cell Western Screen of BRM Degradation in SW1573 Cells; endogenous in cells; host or cells: SW1573
# Sequence (P51531 whole entry): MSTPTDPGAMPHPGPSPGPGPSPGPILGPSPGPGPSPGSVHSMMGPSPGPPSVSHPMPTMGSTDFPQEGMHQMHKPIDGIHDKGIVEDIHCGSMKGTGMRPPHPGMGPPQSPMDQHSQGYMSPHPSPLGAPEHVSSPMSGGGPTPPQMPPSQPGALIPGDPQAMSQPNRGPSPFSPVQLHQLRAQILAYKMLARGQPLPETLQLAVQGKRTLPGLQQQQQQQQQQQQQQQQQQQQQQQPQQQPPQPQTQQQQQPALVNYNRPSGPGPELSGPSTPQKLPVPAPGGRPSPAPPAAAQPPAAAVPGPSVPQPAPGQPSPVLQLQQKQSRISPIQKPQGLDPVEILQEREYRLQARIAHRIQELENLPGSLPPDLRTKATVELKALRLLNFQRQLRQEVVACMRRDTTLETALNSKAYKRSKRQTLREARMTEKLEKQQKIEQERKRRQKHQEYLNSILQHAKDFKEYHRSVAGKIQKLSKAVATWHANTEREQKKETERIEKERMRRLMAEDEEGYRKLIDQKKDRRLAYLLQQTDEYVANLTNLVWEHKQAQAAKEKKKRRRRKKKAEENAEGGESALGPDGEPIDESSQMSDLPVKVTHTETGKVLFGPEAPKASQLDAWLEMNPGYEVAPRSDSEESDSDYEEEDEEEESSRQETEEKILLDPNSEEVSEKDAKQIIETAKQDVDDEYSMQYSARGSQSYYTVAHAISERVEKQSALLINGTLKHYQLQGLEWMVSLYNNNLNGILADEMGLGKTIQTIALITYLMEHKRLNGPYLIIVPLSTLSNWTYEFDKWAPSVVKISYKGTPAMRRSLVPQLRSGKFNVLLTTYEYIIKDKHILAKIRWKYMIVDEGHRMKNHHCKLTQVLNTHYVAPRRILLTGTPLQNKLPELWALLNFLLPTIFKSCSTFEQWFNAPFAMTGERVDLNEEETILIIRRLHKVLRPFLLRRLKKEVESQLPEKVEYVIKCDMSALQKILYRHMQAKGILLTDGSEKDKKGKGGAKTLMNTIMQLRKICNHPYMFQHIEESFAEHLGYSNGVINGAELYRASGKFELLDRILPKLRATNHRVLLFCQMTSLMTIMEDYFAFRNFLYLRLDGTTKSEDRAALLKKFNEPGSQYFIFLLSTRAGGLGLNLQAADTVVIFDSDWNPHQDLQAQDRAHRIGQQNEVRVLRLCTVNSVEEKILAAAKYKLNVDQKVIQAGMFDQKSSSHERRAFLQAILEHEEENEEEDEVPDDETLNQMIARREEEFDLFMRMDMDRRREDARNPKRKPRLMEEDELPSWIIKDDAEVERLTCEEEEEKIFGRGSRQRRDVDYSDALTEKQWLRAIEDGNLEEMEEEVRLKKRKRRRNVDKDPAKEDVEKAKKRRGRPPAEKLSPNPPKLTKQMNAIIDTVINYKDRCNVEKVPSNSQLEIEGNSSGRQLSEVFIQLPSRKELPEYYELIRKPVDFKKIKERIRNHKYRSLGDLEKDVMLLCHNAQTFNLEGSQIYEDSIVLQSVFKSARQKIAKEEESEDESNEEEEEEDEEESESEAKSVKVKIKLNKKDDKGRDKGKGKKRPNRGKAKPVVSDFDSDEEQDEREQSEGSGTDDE
# test-summary: In-cell Western screen of BRM degradation in SW1573 cells (Dmax and DC50)
# Assay type: cell-based
# run-parameters: BRM degradation, SW1573 cells; read-out: DC50
reported-metric: DC50

[[record]]
structure_string = "COCc1ncsc1-c1ccc([C@H](C)NC(=O)[C@@H]2C[C@@H](O)CN2C(=O)[C@@H](c2cc(OCCN3CCC(O[C@H]4C[C@H](Oc5cc(N6C7CCC6CN(c6cc(-c8ccccc8O)nnc6N)C7)ccn5)C4)CC3)no2)C(C)C)cc1"
measured_result = "< 2.5 nM"

[[record]]
structure_string = "Cc1ncsc1-c1ccc(CNC(=O)[C@@H]2C[C@@H](O)CN2C(=O)[C@@H](NC(=O)COCCOCCN2CCN(CCCc3cc(N4C5CCC4CN(c4cc(-c6ccccc6O)nnc4N)C5)ccn3)CC2)C(C)(C)C)cc1"
measured_result = "> 30 nM"

[[record]]
structure_string = "Cc1ncsc1-c1ccc([C@@H](NC(=O)[C@@H]2C[C@@H](O)CN2C(=O)[C@@H](c2cc(OCCN3CCN(CCOc4cc(N5C6CCC5CN(c5cc(-c7ccccc7O)nnc5N)C6)ccn4)CC3)no2)C(C)C)C(=O)N(C)C2CCC2)cc1"
measured_result = "< 2.5 nM"

[[record]]
structure_string = "Cc1ncsc1-c1ccc([C@H](C)NC(=O)[C@@H]2C[C@@H](O)CN2C(=O)[C@H](c2cc(N3CCC(F)(CN4CCC(O[C@H]5C[C@H](Oc6cc(N7C8CCC7CN(c7cc(-c9ccccc9O)nnc7N)C8)ccn6)C5)CC4)CC3)no2)C(C)C)cc1"
measured_result = "2.5 to 10 nM"

[[record]]
structure_string = "Cc1ncsc1-c1ccc([C@H](C)NC(=O)[C@@H]2C[C@@H](O)CN2C(=O)[C@H](c2cc(OCC#Cc3ccc(O[C@H]4C[C@H](Oc5cc(N6C7CCC6CN(c6cc(-c8ccccc8O)nnc6N)C7)ccn5)C4)cn3)no2)C(C)C)cc1"
measured_result = "10 to 30 nM"

[[record]]
structure_string = "Cc1ncsc1-c1ccc([C@H](C)NC(=O)[C@@H]2C[C@@H](O)CN2C(=O)[C@@H](c2cc(N3CCC4(CC3)CC(CN3CCC(O[C@H]5C[C@H](Oc6cc(N7C8CCC7CN(c7cc(-c9ccccc9O)nnc7N)C8)ccn6)C5)CC3)C4)no2)C(C)C)cc1"
measured_result = "> 30 nM"

[[record]]
structure_string = "Cc1ncsc1-c1ccc([C@H](COCC(C)C)NC(=O)[C@@H]2C[C@@H](O)CN2C(=O)[C@@H](c2cc(OCCN3CCN(CCOc4cc(N5C6CCC5CN(c5cc(-c7ccccc7O)nnc5N)C6)ccn4)CC3)no2)C(C)C)cc1"
measured_result = "> 30 nM"

[[record]]
structure_string = "Cc1ncsc1-c1ccc([C@H](C)NC(=O)[C@@H]2C[C@@H](O)CN2C(=O)[C@H](c2cc(N3CCC4(CC3)CN(CC3CCN(C[C@H]5C[C@H](Oc6cc(N7C8CCC7CN(c7cc(-c9ccccc9O)nnc7N)C8)ccn6)C5)CC3)C4)no2)C(C)C)cc1"
measured_result = "> 30 nM"

[[record]]
structure_string = "COC[C@H](NC(=O)[C@@H]1C[C@@H](O)CN1C(=O)[C@@H](c1cc(N2CCC(CN3CCC(O[C@H]4C[C@H](Oc5cc(N6C7CCC6CN(c6cc(-c8ccccc8O)nnc6N)C7)ccn5)C4)CC3)CC2)no1)C(C)C)c1ccc(-c2scnc2C)cc1"
measured_result = "< 2.5 nM"


----------
# measured-on: BRM (Homo sapiens)
# Construct: In-Cell Western Screen of BRM Degradation in SW1573 Cells; endogenous in cells; host or cells: SW1573
# test-summary: In-cell Western screen of BRM degradation in SW1573 cells (Dmax and DC50)
# Type: cell-based
# run-parameters: BRM degradation, SW1573 cells; tested at the top concentration of between 0.3 and 10 μM; read-out: Dmax (%) (% degraded)
reported-metric: Dmax

[[record]]
compound = "Cc1ncsc1-c1ccc([C@H](CO)NC(=O)[C@@H]2C[C@@H](O)CN2C(=O)[C@@H](c2cc(OCCN3CCC(O[C@H]4C[C@H](Oc5cc(N6C7CCC6CN(c6cc(-c8ccccc8O)nnc6N)C7)ccn5)C4)CC3)no2)C(C)C)cc1 [compound 199]"
reported_metric = "Dmax"
measured_result = "> 75%"

[[record]]
compound = "Cc1ncoc1-c1ccc([C@H](C)NC(=O)[C@@H]2C[C@@H](O)CN2C(=O)[C@H](c2cc(OCCN3CCN(CCOc4cc(N5C6CCC5CN(c5cc(-c7ccccc7O)nnc5N)C6)ccn4)CC3)no2)C(C)C)cn1 [compound 161]"
reported_metric = "Dmax"
measured_result = "< 50%"

[[record]]
compound = "Cc1nccn1-c1ccc([C@H](C)NC(=O)[C@@H]2C[C@@H](O)CN2C(=O)[C@@H](c2cc(OCC#Cc3ccc(O[C@H]4C[C@H](Oc5cc(N6C7CCC6CN(c6cc(-c8ccccc8O)nnc6N)C7)ccn5)C4)cn3)no2)C(C)C)cc1 [compound 234]"
reported_metric = "Dmax"
measured_result = "> 75%"

[[record]]
compound = "CC(=O)NCc1ncsc1-c1ccc([C@H](C)NC(=O)[C@@H]2C[C@@H](O)CN2C(=O)C(c2cc(OCCN3CCN(CCOc4cc(N5C6CCC5CN(c5cc(-c7ccccc7O)nnc5N)C6)ccn4)CC3)no2)C(C)C)cc1 (stereo partly shown) [compound 174]"
reported_metric = "Dmax"
measured_result = "> 75%"


----------
DC50 values for the molecules below.
# measured-on: BRM (Homo sapiens)
# Construct: In-Cell Western Screen of BRM Degradation in SW1573 Cells; endogenous in cells; host or cells: SW1573
# test-summary: In-cell Western screen of BRM degradation in SW1573 cells (Dmax and DC50)
# Type: cell-based
# run-parameters: target protein degradation; read-out: BRM DC50
reported-metric: DC50

[[record]]
structure_string = "Cc1ncsc1-c1ccc([C@H](C)NC(=O)[C@@H]2C[C@@H](O)CN2C(=O)[C@H](c2cc(OCC[C@H]3CC[C@H](O[C@H]4C[C@H](Oc5cc(N6C7CCC6CN(c6cc(-c8ccccc8O)nnc6N)C7)ccn5)C4)CC3)no2)C(C)C)cc1"
measured_result = "> 30 nM"

[[record]]
structure_string = "Cc1ncsc1-c1cnc([C@H](C)NC(=O)[C@@H]2C[C@@H](O)CN2C(=O)[C@H](c2cc(OCCN3CCC(O[C@H]4C[C@H](Oc5cc(N6C7CCC6CN(c6cc(-c8ccccc8O)nnc6N)C7)ccn5)C4)CC3)no2)C(C)C)cn1"
measured_result = "> 30 nM"


----------
# measured-on: BRM (Homo sapiens, UniProt P51531)
# Construct: In-Cell Western Screen of BRM Degradation in SW1573 Cells; endogenous in cells; host or cells: SW1573
# test-summary: In-cell Western screen of BRM degradation in SW1573 cells (Dmax and DC50)
# Type: cell-based
# run-parameters: BRM degradation; read-out: BRM DC50
# Method: In-Cell Western Screen of BRM Degradation in SW1573 Cells […] To read each plate TBS-T was removed, and each plate was inverted tapped on a paper towel. The plates were read on the LI-COR Odyssey with default intensity settings of 5.0 for both channels. LI-COR images were analyzed with the in-cell Western feature of Image Studio Lite.
reported-metric: DC50

[[record]]
compound = "Cc1cc([C@H](C(=O)N2C[C@H](O)C[C@H]2C(=O)N[C@@H](COCCOCCNc2ccc(-c3ccccc3O)nn2)c2ccc(-c3scnc3C)cc2)C(C)C)on1 [compound 526]"
reported_metric = "DC50"
measured_result = "> 30 nM"

[[record]]
compound = "Cc1ncsc1-c1ccc([C@H](C)NC(=O)[C@@H]2C[C@@H](O)CN2C(=O)[C@@H](c2cc(OCC[C@H]3CCN(C[C@H]4C[C@H](Oc5cc(N6C7CCC6CN(c6cc(-c8ccccc8O)nnc6N)C7)ccn5)C4)[C@H](C)C3)no2)C(C)C)cc1 [compound 535]"
reported_metric = "DC50"
measured_result = "< 2.5 nM"

[[record]]
compound = "Cc1ncsc1-c1ccc([C@H](C)NC(=O)[C@@H]2C[C@@H](O)CN2C(=O)[C@@H](c2cc(OCCN3CCN(CCOc4cc(N5C6CCC5CN(c5cc(-c7ccccc7O)nnc5N)C6)ccn4)C[C@@H]3C)no2)C(C)C)cn1 [compound 509]"
reported_metric = "DC50"
measured_result = "< 2.5 nM"

[[record]]
compound = "Cc1ncsc1-c1ccc([C@H](C)NC(=O)[C@@H]2C[C@@H](O)CN2C(=O)[C@@H](NC(=O)CN2CCC(CN3CCC(OC4CC(Oc5cc(N6C7CC[C@@H]6CN(c6cc(-c8ccccc8O)nnc6N)C7)ccn5)C4)CC3)CC2)C(C)(C)C)cc1 (stereo partly shown) [compound 512]"
reported_metric = "DC50"
measured_result = "< 2.5 nM"

